Reference source for all entries: PubChem BioAssay AID1963426

- System: 186277-243-T-J2-PDC complex spheroid growth, % test/control
- measurement_description: Anticancer human tumor 186277-243-T-J2-PDC patient-derived colon adenocarcinoma cell line growth inhibition [Asc]
- condition_description: curve of first compound; second compound 1 µM
pIC50: −log10 of the molar value.
Entries annotated with measured pIC50
quantity_measured: pIC50

compound="CCN1CCN(Cc2ccc(Nc3ncc(F)c(-c4cc(F)c5nc(C)n(C(C)C)c5c4)n3)nc2)CC1 + Cc1c(S(C)(=O)=O)c(-c2cc(F)cc(N3CCN(c4ccc(NS(=O)(=O)c5ccc(NC(CCN6CCC(C(=O)OCCCP(=O)(O)O)CC6)CSc6ccccc6)c(S(=O)(=O)C(F)(F)F)c5)cc4)CC3)c2)c(-c2ccc(Cl)cc2)n1C(C)C" quantity_measured=pIC50 qual=< measurement=6.00
compound="CCN1C(C(=O)NC23CCC(C(=O)O)(CC2)CC3)C(c2cccc(Cl)c2F)C2(C(=O)Nc3cc(Cl)ccc32)C12CCCCC2 (stereo not drawn) + CNC(C)C(=O)NC1CN(S(=O)(=O)c2cccc(S(=O)(=O)N3CCC4CCC(C(=O)NC(c5ccccc5)c5ccccc5)N4C(=O)C(NC(=O)C(C)NC)C3)c2)CCC2CCC(C(=O)NC(c3ccccc3)c3ccccc3)N2C1=O" quantity_measured=pIC50 qual== measurement=5.62
compound="NC(=O)C(=Cn1cnc(-c2cc(C(F)(F)F)cc(C(F)(F)F)c2)n1)c1cncnc1 + Cc1c(S(C)(=O)=O)c(-c2cc(F)cc(N3CCN(c4ccc(NS(=O)(=O)c5ccc(NC(CCN6CCC(C(=O)OCCCP(=O)(O)O)CC6)CSc6ccccc6)c(S(=O)(=O)C(F)(F)F)c5)cc4)CC3)c2)c(-c2ccc(Cl)cc2)n1C(C)C" quantity_measured=pIC50 qual== measurement=7.18

----------
- System: 186277-243-T-J2-PDC complex spheroid growth, % test/control
- measurement_description: Anticancer human tumor 186277-243-T-J2-PDC cell line growth inhibition [Asc];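 also: spheroids exposed to agents for 7 days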;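 as to viability, T/C: 100% = DMSO vehicle control wells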
- condition_description: second compound 1 µM; first compound 0.01 µM; stronger effect = lower value
quantity_measured: viability, T/C

compound="CCN1CCN(Cc2ccc(Nc3ncc(F)c(-c4cc(F)c5nc(C)n(C(C)C)c5c4)n3)nc2)CC1 + CNC(C)C(=O)NC1CN(S(=O)(=O)c2cccc(S(=O)(=O)N3CCC4CCC(C(=O)NC(c5ccccc5)c5ccccc5)N4C(=O)C(NC(=O)C(C)NC)C3)c2)CCC2CCC(C(=O)NC(c3ccccc3)c3ccccc3)N2C1=O" measured_target="186277-243-T-J2-PDC complex spheroid growth, % test/control" measurement=113%
compound="Cn1ncnc1[C@H]1c2n[nH]c(=O)c3cc(F)cc(c23)N[C@@H]1c1ccc(F)cc1 + Cc1c(S(C)(=O)=O)c(-c2cc(F)cc(N3CCN(c4ccc(NS(=O)(=O)c5ccc(NC(CCN6CCC(C(=O)OCCCP(=O)(O)O)CC6)CSc6ccccc6)c(S(=O)(=O)C(F)(F)F)c5)cc4)CC3)c2)c(-c2ccc(Cl)cc2)n1C(C)C" measured_target="186277-243-T-J2-PDC complex spheroid growth, % test/control" measurement=91.5%
compound="CCN1CCN(Cc2ccc(Nc3ncc(F)c(-c4cc(F)c5nc(C)n(C(C)C)c5c4)n3)nc2)CC1 + Cc1c(S(C)(=O)=O)c(-c2cc(F)cc(N3CCN(c4ccc(NS(=O)(=O)c5ccc(NC(CCN6CCC(C(=O)OCCCP(=O)(O)O)CC6)CSc6ccccc6)c(S(=O)(=O)C(F)(F)F)c5)cc4)CC3)c2)c(-c2ccc(Cl)cc2)n1C(C)C" measured_target="186277-243-T-J2-PDC complex spheroid growth, % test/control" measurement=99.6%
compound="CNC(C)C(=O)NC1CN(S(=O)(=O)c2cccc(S(=O)(=O)N3CCC4CCC(C(=O)NC(c5ccccc5)c5ccccc5)N4C(=O)C(NC(=O)C(C)NC)C3)c2)CCC2CCC(C(=O)NC(c3ccccc3)c3ccccc3)N2C1=O (stereo unspecified) + Cc1c(S(C)(=O)=O)c(-c2cc(F)cc(N3CCN(c4ccc(NS(=O)(=O)c5ccc(NC(CCN6CCC(C(=O)OCCCP(=O)(O)O)CC6)CSc6ccccc6)c(S(=O)(=O)C(F)(F)F)c5)cc4)CC3)c2)c(-c2ccc(Cl)cc2)n1C(C)C" measured_target="186277-243-T-J2-PDC complex spheroid growth, % test/control" measurement=114%
compound="NC1CCC(NC2CC2c2ccccc2)CC1 (stereo unspecified) + Cc1c(S(C)(=O)=O)c(-c2cc(F)cc(N3CCN(c4ccc(NS(=O)(=O)c5ccc(NC(CCN6CCC(C(=O)OCCCP(=O)(O)O)CC6)CSc6ccccc6)c(S(=O)(=O)C(F)(F)F)c5)cc4)CC3)c2)c(-c2ccc(Cl)cc2)n1C(C)C" measured_target="186277-243-T-J2-PDC complex spheroid growth, % test/control" measurement=93%
compound="COc1c(OCCCN2CCOCC2)ccc2c3n(c(=NC(=O)c4cnc(N)nc4)nc12)CCN3 + CNC(C)C(=O)NC1CN(S(=O)(=O)c2cccc(S(=O)(=O)N3CCC4CCC(C(=O)NC(c5ccccc5)c5ccccc5)N4C(=O)C(NC(=O)C(C)NC)C3)c2)CCC2CCC(C(=O)NC(c3ccccc3)c3ccccc3)N2C1=O" measured_target="186277-243-T-J2-PDC complex spheroid growth, % test/control" measurement=104%
compound="O=C(c1ccc(F)c(F)c1Nc1ccc(I)cc1F)N1CC(O)([C@@H]2CCCCN2)C1 + CNC(C)C(=O)NC1CN(S(=O)(=O)c2cccc(S(=O)(=O)N3CCC4CCC(C(=O)NC(c5ccccc5)c5ccccc5)N4C(=O)C(NC(=O)C(C)NC)C3)c2)CCC2CCC(C(=O)NC(c3ccccc3)c3ccccc3)N2C1=O" measured_target="186277-243-T-J2-PDC complex spheroid growth, % test/control" measurement=119%
compound="O=C(c1ccc(F)c(F)c1Nc1ccc(I)cc1F)N1CC(O)([C@@H]2CCCCN2)C1 + Cc1c(S(C)(=O)=O)c(-c2cc(F)cc(N3CCN(c4ccc(NS(=O)(=O)c5ccc(NC(CCN6CCC(C(=O)OCCCP(=O)(O)O)CC6)CSc6ccccc6)c(S(=O)(=O)C(F)(F)F)c5)cc4)CC3)c2)c(-c2ccc(Cl)cc2)n1C(C)C" measured_target="186277-243-T-J2-PDC complex spheroid growth, % test/control" measurement=99.2%
compound="COc1c(OCCCN2CCOCC2)ccc2c3n(c(=NC(=O)c4cnc(N)nc4)nc12)CCN3 + Cc1c(S(C)(=O)=O)c(-c2cc(F)cc(N3CCN(c4ccc(NS(=O)(=O)c5ccc(NC(CCN6CCC(C(=O)OCCCP(=O)(O)O)CC6)CSc6ccccc6)c(S(=O)(=O)C(F)(F)F)c5)cc4)CC3)c2)c(-c2ccc(Cl)cc2)n1C(C)C" measured_target="186277-243-T-J2-PDC complex spheroid growth, % test/control" measurement=84.1%
compound="NC1CCC(NC2CC2c2ccccc2)CC1 (stereo unspecified) + CNC(C)C(=O)NC1CN(S(=O)(=O)c2cccc(S(=O)(=O)N3CCC4CCC(C(=O)NC(c5ccccc5)c5ccccc5)N4C(=O)C(NC(=O)C(C)NC)C3)c2)CCC2CCC(C(=O)NC(c3ccccc3)c3ccccc3)N2C1=O" measured_target="186277-243-T-J2-PDC complex spheroid growth, % test/control" measurement=109%
compound="Cn1ncnc1[C@H]1c2n[nH]c(=O)c3cc(F)cc(c23)N[C@@H]1c1ccc(F)cc1 + CNC(C)C(=O)NC1CN(S(=O)(=O)c2cccc(S(=O)(=O)N3CCC4CCC(C(=O)NC(c5ccccc5)c5ccccc5)N4C(=O)C(NC(=O)C(C)NC)C3)c2)CCC2CCC(C(=O)NC(c3ccccc3)c3ccccc3)N2C1=O" measured_target="186277-243-T-J2-PDC complex spheroid growth, % test/control" measurement=131%

----------
- Tested on: 186277-243-T-J2-PDC complex spheroid growth, % test/control
- measurement_description: Anticancer human tumor 186277-243-T-J2-PDC cell line growth inhibition [Asc];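 also: spheroids exposed to agents for 7 days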
- condition_description: curve of first compound; second compound 0.949 µM
pIC50: −log10 of the molar value.
Answer Condition not met if pIC50 is under 6, and Condition met if it is 6 or more.

compound="COc1c(OCCCN2CCOCC2)ccc2c3n(c(=NC(=O)c4cnc(N)nc4)nc12)CCN3 + CCN1C(C(=O)NC23CCC(C(=O)O)(CC2)CC3)C(c2cccc(Cl)c2F)C2(C(=O)Nc3cc(Cl)ccc32)C12CCCCC2" assigned_category="Condition met"
compound="C=CC(=O)N1CCN(c2nc(=O)n(-c3c(C)ccnc3C(C)C)c3nc(-c4c(O)cccc4F)c(F)cc23)C(C)C1 (configuration not stated) + CCN1C(C(=O)NC23CCC(C(=O)O)(CC2)CC3)C(c2cccc(Cl)c2F)C2(C(=O)Nc3cc(Cl)ccc32)C12CCCCC2" assigned_category="Condition not met"
compound="O=C(c1ccc(F)c(F)c1Nc1ccc(I)cc1F)N1CC(O)([C@@H]2CCCCN2)C1 + CCN1C(C(=O)NC23CCC(C(=O)O)(CC2)CC3)C(c2cccc(Cl)c2F)C2(C(=O)Nc3cc(Cl)ccc32)C12CCCCC2" assigned_category="Condition met"
compound="CCN1CCN(Cc2ccc(Nc3ncc(F)c(-c4cc(F)c5nc(C)n(C(C)C)c5c4)n3)nc2)CC1 + CCN1C(C(=O)NC23CCC(C(=O)O)(CC2)CC3)C(c2cccc(Cl)c2F)C2(C(=O)Nc3cc(Cl)ccc32)C12CCCCC2" assigned_category="Condition met"
compound="C=C(F)C(=O)N1CCN(c2nc(OCC3CCCN3C)nc3c2CCN(c2cccc4cccc(Cl)c24)C3)CC1CC#N (configuration not stated) + CCN1C(C(=O)NC23CCC(C(=O)O)(CC2)CC3)C(c2cccc(Cl)c2F)C2(C(=O)Nc3cc(Cl)ccc32)C12CCCCC2" assigned_category="Condition not met"
compound="Cn1ncnc1[C@H]1c2n[nH]c(=O)c3cc(F)cc(c23)N[C@@H]1c1ccc(F)cc1 + CCN1C(C(=O)NC23CCC(C(=O)O)(CC2)CC3)C(c2cccc(Cl)c2F)C2(C(=O)Nc3cc(Cl)ccc32)C12CCCCC2" assigned_category="Condition met"
compound="C#Cc1c(F)ccc2cc(O)cc(-c3ncc4c(N5CC6CCC(C5)N6)nc(OCC56CCCN5CC(F)C6)nc4c3F)c12 (configuration not stated) + CCN1C(C(=O)NC23CCC(C(=O)O)(CC2)CC3)C(c2cccc(Cl)c2F)C2(C(=O)Nc3cc(Cl)ccc32)C12CCCCC2" assigned_category="Condition met"
compound="CNC(C)C(=O)NC1CN(S(=O)(=O)c2cccc(S(=O)(=O)N3CCC4CCC(C(=O)NC(c5ccccc5)c5ccccc5)N4C(=O)C(NC(=O)C(C)NC)C3)c2)CCC2CCC(C(=O)NC(c3ccccc3)c3ccccc3)N2C1=O (configuration not stated) + CCN1C(C(=O)NC23CCC(C(=O)O)(CC2)CC3)C(c2cccc(Cl)c2F)C2(C(=O)Nc3cc(Cl)ccc32)C12CCCCC2" assigned_category="Condition met"
compound="O=C(c1cc(Cc2n[nH]c(=O)c3ccccc23)ccc1F)N1CCN(C(=O)C2CC2)CC1 + CCN1C(C(=O)NC23CCC(C(=O)O)(CC2)CC3)C(c2cccc(Cl)c2F)C2(C(=O)Nc3cc(Cl)ccc32)C12CCCCC2" assigned_category="Condition met"
compound="NC(=O)C(=Cn1cnc(-c2cc(C(F)(F)F)cc(C(F)(F)F)c2)n1)c1cncnc1 + CCN1C(C(=O)NC23CCC(C(=O)O)(CC2)CC3)C(c2cccc(Cl)c2F)C2(C(=O)Nc3cc(Cl)ccc32)C12CCCCC2" assigned_category="Condition met"
compound="Cc1nc(N2CCC3(CC2)COC(C)C3N)c(CO)nc1Sc1ccnc(N)c1Cl (configuration not stated) + CCN1C(C(=O)NC23CCC(C(=O)O)(CC2)CC3)C(c2cccc(Cl)c2F)C2(C(=O)Nc3cc(Cl)ccc32)C12CCCCC2" assigned_category="Condition met"
